# TESTED_TARGET: human factor XIa (Homo sapiens, UniProt P03951)
# Sequence (P03951 388-625 limits assumed): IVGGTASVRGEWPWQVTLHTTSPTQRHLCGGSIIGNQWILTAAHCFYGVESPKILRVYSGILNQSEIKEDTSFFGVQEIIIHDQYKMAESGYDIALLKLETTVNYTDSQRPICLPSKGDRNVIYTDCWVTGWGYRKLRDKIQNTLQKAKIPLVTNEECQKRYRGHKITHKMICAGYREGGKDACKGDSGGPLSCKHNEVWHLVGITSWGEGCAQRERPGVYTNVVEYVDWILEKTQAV
# Sequence (P03951 19-387 partner limits assumed): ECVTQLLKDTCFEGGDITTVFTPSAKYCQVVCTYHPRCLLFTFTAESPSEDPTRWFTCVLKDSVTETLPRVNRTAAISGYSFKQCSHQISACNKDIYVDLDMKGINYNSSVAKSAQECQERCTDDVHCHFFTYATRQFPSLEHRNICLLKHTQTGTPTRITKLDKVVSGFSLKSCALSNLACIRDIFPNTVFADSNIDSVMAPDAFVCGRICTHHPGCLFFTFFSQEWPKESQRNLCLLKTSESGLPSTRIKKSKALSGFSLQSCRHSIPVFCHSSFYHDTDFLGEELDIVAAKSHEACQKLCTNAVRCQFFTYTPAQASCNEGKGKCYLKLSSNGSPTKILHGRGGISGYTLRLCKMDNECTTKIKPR
Structures can show the parent of a compound that is named as a salt.
MEASUREMENT_TYPE: IC50 (nM)
Please reply with the bare figure in nM and do not write the unit itself.

As a guide, the following entries are already answered.
COCCOCCOCCOCCNC(=O)c1ccc(-c2ccc(C[C@H](NC(=O)[C@H]3CC[C@H](CN)CC3)C(=O)Nc3ccc(-c4nn[nH]n4)cc3)cc2)c(C)c1 [Example 27, hydrochloride]: 2.8
Cc1cc(C(=O)NC2C3CNCC32)ccc1-c1ccc(C[C@H](NC(=O)[C@H]2CC[C@H](CN)CC2)C(=O)Nc2ccc(-c3nnc(C(F)(F)C(F)(F)C(=O)O)[nH]3)cc2)cc1 (stereo partly shown) [Example 154, hydrochloride]: 2.8
Cc1cc(C(=O)NC2CCC2)ccc1-c1ccc(C[C@H](NC(=O)[C@H]2CC[C@H](CN)CC2)C(=O)Nc2ccc(-c3nnn[nH]3)cc2)cc1 [Example 138, hydrochloride]: 0.84
Cc1cc(C(=O)N[C@H]2CCNC2)ccc1-c1ccc(C[C@H](NC(=O)[C@H]2CC[C@H](CN)CC2)C(=O)Nc2ccc(-c3nnc(C(F)(F)C(F)(F)C(=O)O)[nH]3)cc2)cc1 [Example 153, hydrochloride]: 1.8
Cc1cc(C(=O)NC2CCNCC2)ccc1-c1ccc(C[C@H](NC(=O)[C@H]2CC[C@H](CN)CC2)C(=O)Nc2ccc3cn[nH]c3c2)cc1 [Example 4, hydrochloride]: 11.9

IN: Which IC50 reading was recorded for the molecule Cc1cc(C(=O)NC2CCNCC2)ccc1-c1ccc(C[C@H](NC(=O)[C@H]2CC[C@H](CN)CC2)C(=O)Nc2ccc(-c3nc(C(F)(F)C(F)(F)C(=O)O)n[nH]3)cc2)cc1 [Example 98, hydrochloride] ?
OUT: 1

IN: What would you report for NC[C@H]1CC[C@H](C(=O)N[C@@H](Cc2ccc(-c3ccc(C(=O)NC4CCNCC4)cc3Cl)cc2)C(=O)Nc2ccc(-c3nn[nH]n3)cc2)CC1 [Example 11, hydrochloride] ?
OUT: 2.5

IN: What would you report for Cc1cc(C(=O)N[C@@H]2CCNC2)ccc1-c1ccc(C[C@H](NC(=O)[C@H]2CC[C@H](CN)CC2)C(=O)Nc2ccc3[nH]c(C(F)(F)C(F)(F)F)nc3c2)cc1 [Example 80, hydrochloride] ?
OUT: 17

IN: What would you report for Cc1cc(C(=O)NC2CCNCC2)ccc1-c1ccc(C[C@H](NC(=O)[C@H]2CC[C@H](CN)CC2)C(=O)Nc2ccc(-c3nc(C(F)(F)C(F)(F)C(=O)N(C)C)n[nH]3)cc2)cc1 [Example 126, hydrochloride] ?
OUT: 1.6

IN: What would you report for NC[C@H]1CC[C@H](C(=O)N[C@@H](Cc2ccc(-c3ccc(C(=O)N[C@@H]4CCCNC4=O)c(F)c3)cc2)C(=O)Nc2ccc(-c3n[nH]c(C(F)(F)C(F)(F)C(=O)O)n3)cc2)CC1 [Example 111, hydrochloride] ?
OUT: 1

====

Structures can show the parent of a compound that is named as a salt.
Below are IC50 values measured for human factor XIa (Homo sapiens, UniProt P03951).
Please reply with the bare figure in nM and do not write the unit itself.

Cc1cc(C(=O)NC2CCNCC2)ccc1-c1ccc(C[C@H](NC(=O)[C@H]2CC[C@H](CN)CC2)C(=O)Nc2ccc3[nH]c(C(F)(F)C(F)(F)F)nc3c2)cc1 [Example 57, hydrochloride]: 8.4

IN: Which IC50 reading was recorded for the molecule Cc1cc(C(=O)N2CCNCC2)ccc1-c1ccc(C[C@H](NC(=O)[C@H]2CC[C@H](CN)CC2)C(=O)Nc2ccc3cn[nH]c3c2)cc1 [Example 5, hydrochloride] ?
OUT: 16

IN: What would you report for Cc1cc(C(=O)NC(C)C)ccc1-c1ccc(C[C@H](NC(=O)[C@H]2CC[C@H](CN)CC2)C(=O)Nc2cc(C(=O)O)c3cn[nH]c3c2)cc1 [Example 161, hydrochloride] ?
OUT: 6.1

====

# TESTED_TARGET: human factor XIa (Homo sapiens, UniProt P03951)
Structures can show the parent of a compound that is named as a salt.
Each entry below carries its reported IC50.
Please reply with the bare figure in nM and do not write the unit itself.

As a guide, the following entries are already answered.
Cc1cc(C(=O)NC2CCNCC2)ccc1-c1ccc(C[C@H](NC(=O)[C@H]2CC[C@H](CN)CC2)C(=O)Nc2ccc(-c3nnc(Cl)[nH]3)cc2)cc1 [Example 49, hydrochloride]: 2.1
Cc1cc(C(=O)N[C@H]2CCCNC2=O)ccc1-c1ccc(C[C@H](NC(=O)[C@H]2CC[C@H](CN)CC2)C(=O)Nc2ccc3c(Cl)n[nH]c3c2)cc1 [Example 93, hydrochloride]: 2.4
CC1CC(NC(=O)c2ccc(-c3ccc(C[C@H](NC(=O)[C@H]4CC[C@H](CN)CC4)C(=O)Nc4ccc(-c5nn[nH]n5)cc4)cc3)c(Cl)c2)CCN1 (stereo partly drawn) [Example 30, hydrochloride]: 3.2
Cc1cc(C(=O)NC2CC2)ccc1-c1ccc(C[C@H](NC(=O)[C@H]2CC[C@H](CN)CC2)C(=O)Nc2ccc3cn[nH]c3c2)cc1 [Example 167, hydrochloride]: 6
Cc1cc(C(=O)NC(C)C)ccc1-c1ccc(C[C@H](NC(=O)[C@H]2CC[C@H](CN)CC2)C(=O)Nc2ccc3nc[nH]c3c2)cc1 [Example 142, hydrochloride]: 15

IN: Which IC50 reading was recorded for the compound Cc1cc(C(=O)NC(C)C)ccc1-c1ccc(C[C@H](NC(=O)[C@H]2CC[C@H](CN)CC2)C(=O)Nc2ccc3c(=O)[nH][nH]c3c2)cc1 [Example 135, hydrochloride] ?
OUT: 2.2

IN: What would you report for Cc1cc(C(=O)N2CCS(=O)(=O)CC2)ccc1-c1ccc(C[C@H](NC(=O)[C@H]2CC[C@H](CN)CC2)C(=O)Nc2ccc(-c3nn[nH]n3)cc2)cc1 [Example 69, hydrochloride] ?
OUT: 2.4

IN: What would you report for Cc1cc(C(=O)NC2CCN(C)CC2)ccc1-c1ccc(C[C@H](NC(=O)[C@H]2CC[C@H](CN)CC2)C(=O)Nc2ccc3[nH]c(C(F)(F)C(F)(F)F)nc3c2)cc1 [Example 82, hydrochloride] ?
OUT: 21

IN: What would you report for CN(C)C1CCC(NC(=O)c2ccc(-c3ccc(C[C@H](NC(=O)[C@H]4CC[C@H](CN)CC4)C(=O)Nc4ccc(-c5nc(C(F)(F)C(F)(F)C(=O)O)n[nH]5)cc4)cc3)c(C(F)(F)F)c2)CC1 (stereo partly drawn) [Example 132, hydrochloride] ?
OUT: 1.6

====

Below are pIC50 values measured for human factor XIa (Homo sapiens).
Where a name gives a salt, the structure may show the parent alone.
Note on pIC50: it is the negative log10 of concentration, concentration in mol/L.

As a guide, the following entries are already answered.
Cc1cc(C(=O)NC2CCNCC2)ccc1-c1ccc(C[C@H](NC(=O)[C@H]2CC[C@H](CN)CC2)C(=O)Nc2ccc(-c3nnc(CCC(=O)O)[nH]3)cc2)cc1 [Example 152, hydrochloride]: 8.28
CNC(=O)C(F)(F)C(F)(F)c1n[nH]c(-c2ccc(NC(=O)[C@H](Cc3ccc(-c4ccc(C(=O)NC5CCNCC5)cc4C)cc3)NC(=O)[C@H]3CC[C@H](CN)CC3)cc2)n1 [Example 128, hydrochloride]: 8.77

IN: Which pIC50 reading was recorded for the compound Cc1c(C(=O)NC2CCNCC2)ccc(-c2ccc(C[C@H](NC(=O)[C@H]3CC[C@H](CN)CC3)C(=O)Nc3ccc(-c4nn[nH]n4)cc3)cc2)c1Cl [Example 124, hydrochloride] ?
OUT: 8.74
